Literature survey of IC50 (system: Carbonic anhydrase 2 (Homo sapiens)).
State just the number; it will be interpreted in nM.

Q) Write down the reported IC50 of CC(=O)NS(=O)(=O)c1ccc(NC(=S)NC(=O)c2ccc3c(c2)C(=O)c2ccccc2C3=O)cc1 , test system: Carbonic anhydrase 2 (Homo sapiens).
A) 156

Q) Write down the reported IC50 of O=C(O)c1ccc(NC(=S)NC(=O)c2ccc3c(c2)C(=O)c2ccccc2C3=O)cc1 , test system: Carbonic anhydrase 2 (Homo sapiens).
A) 113

Q) Write down the reported IC50 of O=C(O)c1cccc(NC(=O)c2ccc3c(c2)C(=O)c2ccccc2C3=O)c1 , test system: Carbonic anhydrase 2 (Homo sapiens).
A) 274

Q) Write down the reported IC50 of CNS(=O)(=O)c1ccc(NC(=S)NC(=O)c2ccc3c(c2)C(=O)c2ccccc2C3=O)cc1 , test system: Carbonic anhydrase 2 (Homo sapiens).
A) 76.7

Q) Write down the reported IC50 of NS(=O)(=O)c1ccc(NC(=O)c2ccc3c(c2)C(=O)c2ccccc2C3=O)cc1 , test system: Carbonic anhydrase 2 (Homo sapiens).
A) 68.3

Q) Write down the reported IC50 of CNS(=O)(=O)c1ccc(NC(=O)c2ccc3c(c2)C(=O)c2ccccc2C3=O)cc1 , test system: Carbonic anhydrase 2 (Homo sapiens).
A) 172

Q) Write down the reported IC50 of NS(=O)(=O)c1cccc(NC(=O)c2nn(-c3ccccc3)c(-c3ccccc3)c2C(=O)c2ccccc2)c1 , test system: Carbonic anhydrase 2 (Homo sapiens).
A) 139

Q) Write down the reported IC50 of NS(=O)(=O)c1cccc(NC(=S)NC(=O)c2ccc3c(c2)C(=O)c2ccccc2C3=O)c1 , test system: Carbonic anhydrase 2 (Homo sapiens).
A) 64.3

Q) Write down the reported IC50 of N=C(N)NS(=O)(=O)c1ccc(NC(=S)NC(=O)c2ccc3c(c2)C(=O)c2ccccc2C3=O)cc1 , test system: Carbonic anhydrase 2 (Homo sapiens).
A) 98.4

Q) Write down the reported IC50 of O=C(NC(=S)Nc1ccc(S(=O)(=O)Nc2ncccn2)cc1)c1ccc2c(c1)C(=O)c1ccccc1C2=O , test system: Carbonic anhydrase 2 (Homo sapiens).
A) 87.7

Q) Write down the reported IC50 of Clc1ccc(COC(Cn2ccnc2)c2ccccc2)cc1 (stereo not drawn) , test system: Carbonic anhydrase 2 (Homo sapiens).
A) 14.8

Q) Write down the reported IC50 of COc1ccc(C(Cn2ccnc2)OCc2ccc(Cl)cc2)cc1 (stereo not drawn) , test system: Carbonic anhydrase 2 (Homo sapiens).
A) 5.65
